Assay Details: qHTS assay for small molecule agonists of retinoid X receptor alpha signaling (AID 588544)
Condition Set: HEK293T RXRa-UAS-bla, beta-lactamase reporter, 18 h; 530 nm emission
Results filed as inconclusive are left out.
Property Measured: max response (%)
Report the value in % with no unit label.

Smiles Input: Nc1ccc(S(N)(=O)=O)cc1
max response / %: -11.9

Smiles Input: CNC[C@H](O)c1ccc(O)c(O)c1
max response / %: -11.1

Exercise: Any idea what its max response is? The molecule is N[C@@H](Cc1cc(I)c(Oc2cc(I)c(O)c(I)c2)c(I)c1)C(=O)O
Solution: -7.79

Exercise: Any idea what its max response is? The molecule is COc1cc(OC)c(C(=O)CCCN2CCCC2)c(OC)c1
Solution: 3.94

Exercise: Any idea what its max response is? The molecule is CC1(C)NC(=O)N(c2ccc([N+](=O)[O-])c(C(F)(F)F)c2)C1=O
Solution: 13.6
